# TESTED_ON: T1, human ICOS, full-length, expressed on transfected Expi293 cells (human, UniProt Q9Y6W8 21-199)
# T1 construct: whole, on cells
# T1 sequence (looked up): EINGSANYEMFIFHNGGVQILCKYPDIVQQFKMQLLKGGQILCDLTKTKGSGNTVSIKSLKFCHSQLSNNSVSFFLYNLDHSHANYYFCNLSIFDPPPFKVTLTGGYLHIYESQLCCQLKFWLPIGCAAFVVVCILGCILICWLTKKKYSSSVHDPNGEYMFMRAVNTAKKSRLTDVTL
# PROTOCOL_DESCRIPTION: flow cytometry, 100 nM, Expi293 cells with human ICOS
READOUT_NAME: MFI ratio to WT (ΔWT) (fold)
Respond with the bare value in fold.

[ask] What value of MFI ratio to WT (ΔWT) has been reported for the following binder? variant ICOSL IgV-Fc fusion N52G/N57V (Fc fusion) DTQEKEVRAMVGSDVELSCACPEGSRFDLNDVYVYWQTSESKTVVTYHIPQGSSLEVVDSRYRNRALMSPAGMLRGDFSLRLFNVTPQDEQKFHCLVLSQSLGFQEVLSVEVTLHVAANFSVGSGGGGSEPKSSDKTHTCPPCPAPEAEGAPSVFLFPPKPKDTLMISRTPEVTCVVVDVSHEDPEVKFNWYVDGVEVHNAKTKPREEQYNSTYRVVSVLTVLHQDWLNGKEYKCKVSNKALPAPIEKTISKAKGQPREPQVYTLPPSREEMTKNQVSLTCLVKGFYPSDIAVEWESNGQPENNYKTTPPVLDSDGSFFLYSKLTVDKSRWQQGNVFSCSVMHEALHNHYTQKSLSLSPG
[reply] 1.57
